// data source = paper PMC11091889

system: A. baumannii (DSM 30007, ATCC 19606); test: Broth microdilution antibacterial assay; type: cell-based, Acinetobacter baumannii; conditions: mean ± standard error, n = 3, MHB; read-out: EC50 A. baumannii
Provide the recorded EC50 for the entries that follow.
Write down the numeric answer in µM and omit the unit.

Name the reported EC50 value associated with the molecule O=[N+]([O-])[O-].[Ag+] [AgNO3, Silver nitrate, reference compound]
4.16

Another molecule: Cn1[c]([Ag][Cl])[n+](Cc2ccccn2)c2ccccc21
1.7

Another molecule: [Br][Ag]=[c]1n(Cc2ccccc2)c2ccccc2n1Cc1ccccn1
0.72

Another molecule: [Cl][Ag][c]1n(Cc2ccccc2)c2ccccc2[n+]1Cc1ccccn1
1.7

Another molecule: CC(C)n1[c](=[Ag][Br])n(Cc2ccccn2)c2ccccc21
0.53
